Log kill listing for selected molecules.
system: Mus musculus; experiment: In vivo activity against transplanted Mam-17/Adr tumors of mice; type: functional, organism-based

>>> measured("O=c1[nH]cc(F)c(=O)[nH]1")
"< 0.7"

Field Log kill (entry COc1cccc2c1C(=O)c1c(O)c3c(c(O)c1C2=O)C[C@@](O)(C(=O)CO)C[C@@H]3O[C@H]1C[C@H](N)[C@H](O)[C@H](C)O1 ) reads < 0.7

Reported Log kill of Nc1ccn([C@@H]2O[C@H](CO)[C@@H](O)[C@@H]2O)c(=O)n1 : 2.8

Lookup result for O=NN(CCCl)C(=O)NCCCl ; measured Log kill: < 0.7

Consider CC[C@]1(O)C[C@@H]2CN(CCc3c([nH]c4ccccc34)[C@@](C(=O)OC)(c3cc4c(cc3OC)N(C)[C@H]3[C@@](O)(C(=O)OC)[C@H](OC(C)=O)[C@]5(CC)C=CCN6CC[C@]43[C@@H]65)C2)C1 . Its measured Log kill is < 0.7

Form: molecule = O=P1(N(CCCl)CCCl)NCCCO1 (stereo not drawn) ; Log kill = 2.8

Item: COc1cc([C@@H]2c3cc4c(cc3[C@@H](O[C@@H]3O[C@@H]5CO[C@@H](C)O[C@H]5[C@H](O)[C@H]3O)[C@H]3COC(=O)[C@H]23)OCO4)cc(OC)c1O | Log kill: < 0.7

For this molecule ( CC(=O)O[C@H]1C(=O)[C@@]2(C)[C@H]([C@H](OC(=O)c3ccccc3)[C@]3(O)C[C@H](OC(=O)[C@H](O)[C@@H](NC(=O)c4ccccc4)c4ccccc4)C(C)=C1C3(C)C)[C@]1(OC(C)=O)CO[C@@H]1C[C@@H]2O ), measured Log kill is < 0.7

----------
tested on: Mus musculus; test: In vivo activity against iv transplanted AML Leukemia 1498 tumors of mice; format: functional, organism-based
recorded.metric: Log kill

>>> measured("O=P1(N(CCCl)CCCl)NCCCO1 (stereo unspecified)")
"> 2.8"
>>> measured("COc1cccc2c1C(=O)c1c(O)c3c(c(O)c1C2=O)C[C@@](O)(C(=O)CO)C[C@@H]3O[C@H]1C[C@H](N)[C@H](O)[C@H](C)O1")
"> 2.8"

Memo: CC(=O)O[C@H]1C(=O)[C@@]2(C)[C@H]([C@H](OC(=O)c3ccccc3)[C@]3(O)C[C@H](OC(=O)[C@H](O)[C@@H](NC(=O)c4ccccc4)c4ccccc4)C(C)=C1C3(C)C)[C@]1(OC(C)=O)CO[C@@H]1C[C@@H]2O , reported Log kill: < 0.7

Lookup result for O=c1[nH]cc(F)c(=O)[nH]1 ; measured Log kill: 1.2

Data point: CC[C@]1(O)C[C@@H]2CN(CCc3c([nH]c4ccccc34)[C@@](C(=O)OC)(c3cc4c(cc3OC)N(C)[C@H]3[C@@](O)(C(=O)OC)[C@H](OC(C)=O)[C@]5(CC)C=CCN6CC[C@]43[C@@H]65)C2)C1 ; Log kill = < 0.7

Input Nc1ccn([C@@H]2O[C@H](CO)[C@@H](O)[C@@H]2O)c(=O)n1 . Output Log kill: > 2.8

----------
Each entry below lists one item and its recorded Log kill value.
system: Mus musculus; experiment: In vivo activity against transplanted colon-38 tumors of mice; assay type: functional, organism-based
Just the number, please, no unit after it.

>>> measured("Nc1ccn([C@@H]2O[C@H](CO)[C@@H](O)[C@@H]2O)c(=O)n1")
1.9

Would you kindly look at the next entry?
Form: compound = CC[C@@]1(O)C(=O)OCc2c1cc1n(c2=O)Cc2cc3ccccc3nc2-1 ; Log kill = 1.2
